System: Alternaria solani
ASSAY_INFO: in vivo preventive test on Alternaria test (tomatoes)
CONDITION_SET: single active compound, 0.5 ppm a.i.; the 1st table
RECORDED_ENDPOINT: Efficacy in % found (%)
Numbers only, in %.

Take a look at these entries with their results.
Req: What measured Efficacy in % found goes with "CCC[C@@H]1CC(C)(C)c2cccc(NC(=O)c3cccnc3C(F)F)c21" ?
Resp: 30

Req: Next entry: "CO/C=C(/C(=O)OC)c1ccccc1COc1cccc(C(F)(F)F)n1"
Resp: 30

Req: Next entry: "CON=C(C(=O)OC)c1ccccc1CON=C(C)c1cccc(C(F)(F)F)c1"
Resp: 24

Further cases:
Req: What measured Efficacy in % found goes with "CO/C=C(/C(=O)OC)c1ccccc1Oc1cc(Oc2ccccc2C#N)ncn1" ?
Resp: 35
